# System: BEN
# TEST DESCRIPTION: relative viability (nuclei count vs DMSO), 5 days (fraction); higher = more cells survive
# MEASUREMENT PARAMETERS: first compound 8 µM
Hi all, reminder that labels come from relative viability, split as low group = under 0.4, middle group = from 0.4 up to 0.8, high group = 0.8 and over

Take a look at these entries with their results.
COMPOUND	SYSTEM NAME	ASSIGNED CATEGORY
O=c1[nH]c2ccccc2n1C1CCN(CCCC(c2ccc(F)cc2)c2ccc(F)cc2)CC1 [Pimozide] + C[C@@H](Oc1cc(-c2cnn(C3CCNCC3)c2)cnc1N)c1c(Cl)ccc(F)c1Cl [Crizotinib] (partner 1 µM)	BEN	high group
O=c1[nH]c2ccccc2n1C1CCN(CCCC(c2ccc(F)cc2)c2ccc(F)cc2)CC1 [Pimozide] + Nc1nc2[nH]cc(CCc3ccc(C(=O)N[C@@H](CCC(=O)O)C(=O)O)cc3)c2c(=O)[nH]1 [Pemetrexed] (partner 0.2 µM)	BEN	high group
O=c1[nH]c2ccccc2n1C1CCN(CCCC(c2ccc(F)cc2)c2ccc(F)cc2)CC1 [Pimozide] + Cc1cc(Nc2cc(N3CCN(C)CC3)nc(Sc3ccc(NC(=O)C4CC4)cc3)n2)n[nH]1 [Tozasertib] (partner 0.1 µM)	BEN	middle group
O=c1[nH]c2ccccc2n1C1CCN(CCCC(c2ccc(F)cc2)c2ccc(F)cc2)CC1 [Pimozide] + O=C(c1cc(Cc2n[nH]c(=O)c3ccccc23)ccc1F)N1CCN(C(=O)C2CC2)CC1 [Olaparib] (partner 8 µM)	BEN	high group
O=c1[nH]c2ccccc2n1C1CCN(CCCC(c2ccc(F)cc2)c2ccc(F)cc2)CC1 [Pimozide] + CCNC(=O)c1noc(-c2cc(C(C)C)c(O)cc2O)c1-c1ccc(CN2CCOCC2)cc1 [Luminespib] (partner 0.01 µM)	BEN	low group

[in] The entry to classify is O=c1[nH]c2ccccc2n1C1CCN(CCCC(c2ccc(F)cc2)c2ccc(F)cc2)CC1 [Pimozide] + COc1cccc2cc(-c3nc([C@H]4CC[C@H](C(=O)O)CC4)n4ncnc(N)c34)[nH]c12 [OSI-027] (partner 0.5 µM) ; which class holds it?
[out] low group

[in] The entry to classify is O=c1[nH]c2ccccc2n1C1CCN(CCCC(c2ccc(F)cc2)c2ccc(F)cc2)CC1 [Pimozide] + O=C(CCCCCCC(=O)Nc1ccccc1)NO [Vorinostat] (partner 1 µM) ; which class holds it?
[out] middle group

[in] The entry to classify is O=c1[nH]c2ccccc2n1C1CCN(CCCC(c2ccc(F)cc2)c2ccc(F)cc2)CC1 [Pimozide] + Cc1nc(NC(=O)N2CCC[C@H]2C(N)=O)sc1-c1ccnc(C(C)(C)C(F)(F)F)c1 [Alpelisib] (partner 2 µM) ; which class holds it?
[out] high group
